Reference source for all entries: paper PMC8764113

Target: wild type PECPS (Aquilaria sinensis)
Sequence (A0A385MEG6 entry or part of it): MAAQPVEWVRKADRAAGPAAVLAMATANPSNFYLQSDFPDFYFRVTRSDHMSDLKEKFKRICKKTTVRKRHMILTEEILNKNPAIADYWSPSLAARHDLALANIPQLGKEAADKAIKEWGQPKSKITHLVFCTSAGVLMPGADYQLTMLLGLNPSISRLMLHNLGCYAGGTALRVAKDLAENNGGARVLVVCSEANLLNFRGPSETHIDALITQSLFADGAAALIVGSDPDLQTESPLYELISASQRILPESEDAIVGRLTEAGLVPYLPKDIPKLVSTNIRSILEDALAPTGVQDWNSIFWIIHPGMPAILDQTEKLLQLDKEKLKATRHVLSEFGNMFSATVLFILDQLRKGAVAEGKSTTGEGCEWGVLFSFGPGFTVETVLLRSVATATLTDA
Test: ITC binding to wild type PECPS
Conditions: ITC, 100 mM KPB pH 7.5, 37 °C, mean ± SD (n = 3)
Procedure: ITC measurements of affinity (KD), stoichiometry (n) and apparent enthalpy change (ΔH°) were obtained using a Nano LV ITC calorimeter (TA Instruments). Samples for cell and injectant solutions were prepared in the same buffer (100 mM KPB, pH 7.5). […] The thermodynamic data obtained from the traces were averaged across three runs, and a standard deviation was calculated. […]
measurement kind: Kd

[
  {
    "molecule": "CC(C)(COP(=O)(O)OP(=O)(O)OC[C@H]1O[C@@H](n2cnc3c(N)ncnc32)[C@H](O)[C@@H]1OP(=O)(O)O)[C@@H](O)C(=O)NCCC(=O)NCCSC(=O)c1ccccc1",
    "tested system": "wild type PECPS (Aquilaria sinensis)",
    "measurement kind": "Kd",
    "reported measurement": "~1 mM"
  }
]
